system: Alopecurus myosuroides (ALOMY); test: Example A glasshouse herbicide test, post-emergence, ALOMY; assay type: in vivo; conditions: Alopecurus myosuroides, post-emergence, 312 h, Rate 250 g/ha, sprayed after 8 days cultivation, evaluated after 13 days, read-out: Post-Emergence Activity ALOMY (100=total damage to plant; 0=no damage to plant)
Record condition met whenever pest or weed control at 250 g/ha is at 70% or higher; record condition not met when lower.

Enquiry: Please indicate if the recorded pest or weed control at 250 g/ha for Cc1cc(C)c(C2C(=O)CC(CC3CCCC3)C2=O)c(C)c1 (stereo not drawn) meets or exceeds 70%.
Return: condition met

Enquiry: # check: pest or weed control at 250 g/ha of Cc1cc(C)c(C2C(=O)C/C(=C\C3CCCC(C)C3)C2=O)c(C)c1 (stereo not drawn) is greater than or equal to 70%
Return: condition not met

Enquiry: Does Cc1cc(C)c(C2C(=O)CC(CC3CCCCC3C)C2=O)c(C)c1 (stereo not drawn) have a reported pest or weed control at 250 g/ha of at least 70%?
Return: condition not met

Enquiry: Is pest or weed control at 250 g/ha at least 70%? Consider Cc1cc(C)c(C2C(=O)CC(CC3CC(C)CCC3C)C2=O)c(C)c1 (stereo not drawn)
Return: condition met

Enquiry: Determine whether this compound has pest or weed control at 250 g/ha no lower than 70%: Cc1cc(C)c(C2C(=O)C/C(=C\C3CCCC4CCCCC34)C2=O)c(C)c1 (stereo not drawn)
Return: condition not met

Enquiry: Record `Cc1cc(C)c(C2=C(OC(=O)C(C)(C)C)C/C(=C\C3CCCCC3)C2=O)c(C)c1` ; criterion: pest or weed control at 250 g/ha no lower than 70%. Met?
Return: condition not met

Enquiry: Test whether the compound Cc1cc(C)c(C2C(=O)CC(CC3CCC(C)CC3)C2=O)c(C)c1 (stereo not drawn) records pest or weed control at 250 g/ha of 70% or higher.
Return: condition not met

Enquiry: Is the recorded value of pest or weed control at 250 g/ha equal to or greater than 70% for this compound? Cc1cccc(C)c1C1C(=O)CC(CC2CCCCC2)C1=O (stereo not drawn)
Return: condition not met

Enquiry: Assess whether reported pest or weed control at 250 g/ha for Cc1cc(C)c(C2C(=O)CC(CC3CC(C)CCC3C(C)C)C2=O)c(C)c1 (stereo not drawn) sits at 70% or higher.
Return: condition not met

Enquiry: Could you tell me if the measured pest or weed control at 250 g/ha of COc1ccc(CC2CC(OC(=O)C(C)(C)C)=C(c3c(C)cc(C)cc3C)C2=O)cc1 (stereo not drawn) reaches 70% or more?
Return: condition met

Enquiry: Hello, I need to know if Cc1cc(C)c(C2C(=O)CC(CC3CCCC4CCCCC43)C2=O)c(C)c1 (stereo not drawn) has measured pest or weed control at 250 g/ha not below 70%. Thanks!
Return: condition not met
